- Tested on: Vero E6
- Method Summary: cell viability relative to DMSO; higher = less toxic
- Details: 72 h; 10 nM
Quantity Kind: cell viability (%)

• CSc1ccc(C(=O)N[C@@H]2CCCC[C@@H]2NC(=O)CNC(=O)c2cc(C(F)(F)F)ccc2NC(=O)NC(C)C)cc1 = 102
• CSc1nc(N)cc(Oc2ccc(-c3nnc(Nc4cccc(C(F)(F)F)c4)[nH]3)cc2)n1 = 103
• CO/N=C1/C[C@@H](C(=O)NC[C@@H](O)c2ccccc2)N(C(=O)c2ccc(-c3ccccc3C)cc2)C1 = 90.8
• O=C(O)C1=CCCNC1 = 101

###

// relative viability EC50 lookup, one value per entry
- Tested on: Caco-2
- Method Summary: relative viability EC50 (midpoint between 100% and the lowest measured viability); higher = less toxic
- Details: 72 h
Quantity Kind: relative viability EC50

* CNC(=O)c1ccc(Nc2ncc(C(F)(F)F)c(NCc3nccnc3N(C)S(C)(=O)=O)n2)cc1 | > 10 µM
* COc1ccccc1C(=O)Nc1cccc(NC(=O)c2cccc(C)c2)c1 | > 10 µM
* CN1CC(O)C2=C/C(=N/NC(N)=O)C(=O)C=C21 (centres undefined) | > 10 µM
* Cc1cc2nc3c(=O)[nH]c(=O)nc-3n(C)c2cc1C=O | 1.91 µM
* CNC(=N)NC(=O)Nc1c(C)cccc1C | > 10 µM
* O=C(NO)c1cnc(N2CCN(S(=O)(=O)c3ccc4ccccc4c3)CC2)nc1 | 0.894 µM
* C[C@@H](N)Cc1c[nH]c2ccc(O)cc12 | > 10 µM
* CO/N=C1/C[C@@H](C(=O)NC[C@@H](O)c2ccccc2)N(C(=O)c2ccc(-c3ccccc3C)cc2)C1 | > 10 µM
* O=C1Nc2ccc(Cl)cc2[C@@](C#CC2CC2)(C(F)(F)F)O1 | > 10 µM
